molecular target: T1, TSHR260-alkaline phosphatase (TSHR260-AP) (human, UniProt P05187 23-511); test: TSHR260-AP bridge ELISA, full length TSHR on wells; 0.1 µg/mL, diluted in HBD
T1 construct: Fusion of human TSHR amino acids 22-260 (construct codes 1-260, 1-21 being the leader) with secreted alkaline phosphatase, expressed in insect cells; In the ELISA the antibody bridges full length detergent-solubilised TSHR coated on the wells and TSHR260-AP in the liquid phase
Quick list: Mean absorbance at 405 nm per entry.

binder	unit-symbol	Mean absorbance at 405 nm
K1-18 IgG (antibody, V domains shown, Human IgG1 kappa purified from hetero-hybridoma supernatant) VH: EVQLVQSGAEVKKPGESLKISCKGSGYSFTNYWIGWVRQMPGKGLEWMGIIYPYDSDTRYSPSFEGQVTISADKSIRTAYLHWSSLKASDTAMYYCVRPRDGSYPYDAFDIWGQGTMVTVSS VL: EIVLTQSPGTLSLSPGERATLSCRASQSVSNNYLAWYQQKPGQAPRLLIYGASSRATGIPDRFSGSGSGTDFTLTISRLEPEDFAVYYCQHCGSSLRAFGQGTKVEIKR	absorbance at 405 nm	0.292
K1-70 Fab (Fab, V domains shown, residue limits as in claims 56 and 57) VH: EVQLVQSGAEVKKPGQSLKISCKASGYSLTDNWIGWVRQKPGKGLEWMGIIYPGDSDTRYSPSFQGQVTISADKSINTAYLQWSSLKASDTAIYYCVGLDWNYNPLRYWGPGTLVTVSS VL: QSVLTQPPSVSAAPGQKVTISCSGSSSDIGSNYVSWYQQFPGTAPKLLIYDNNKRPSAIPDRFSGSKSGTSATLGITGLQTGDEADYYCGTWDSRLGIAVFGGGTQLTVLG	absorbance at 405 nm	-0.01
K1-70 IgG (antibody, V domains shown, Human IgG1 lambda purified from hetero-hybridoma supernatant) VH: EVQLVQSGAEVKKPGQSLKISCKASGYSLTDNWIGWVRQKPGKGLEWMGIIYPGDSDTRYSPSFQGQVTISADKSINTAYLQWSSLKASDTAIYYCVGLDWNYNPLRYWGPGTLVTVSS VL: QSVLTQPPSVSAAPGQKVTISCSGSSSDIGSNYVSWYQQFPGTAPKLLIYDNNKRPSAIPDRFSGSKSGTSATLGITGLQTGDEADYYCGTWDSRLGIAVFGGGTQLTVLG	absorbance at 405 nm	0.44
K1-18 Fab (Fab, V domains shown, residue limits as in claim 65) VH: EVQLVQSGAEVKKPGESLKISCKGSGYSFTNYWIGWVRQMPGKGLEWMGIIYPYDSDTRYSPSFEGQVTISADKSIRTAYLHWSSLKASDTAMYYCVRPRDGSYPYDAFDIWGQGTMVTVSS VL: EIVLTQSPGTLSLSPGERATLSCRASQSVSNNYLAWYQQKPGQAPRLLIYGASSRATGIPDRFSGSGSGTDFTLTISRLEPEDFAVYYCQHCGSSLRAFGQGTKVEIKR	absorbance at 405 nm	-0.011
